Test: soluble fraction after stress (log2 fold change); higher = more stays soluble; pooled small domains, quantitative proteomics
Conditions: stress: 50 degC
Output Yes for soluble fraction (log2) not less than -0.07; output No otherwise.

residue.sequence | group.label
HMDANAYTYKVSEDTDTRTGEKIFLVKVAEKLSRKEYIVVNNYMKSLGSYYSKFKHAFLFKENPTEKL | No
HMESFGVAIKRLREAQGWTRADFLRQLGKTGYYMHATTLKRIEEGEQIAKVHEAVIISRLFGVTVEEMG | No
HMAPRASDALTERELDVLRVVADGASVAEAAEMLVVSRETVKKHLGNIYAKLGVHSKMQAVALLREEGV | No
HMDVNLSIRSGETIGIIGSTGSAKSTLVQLIPRLYDTTEGEVLVGGVNVKNYDLEALRNSVAMVLQKN | Yes
HMDKPIFTLRENEVLYWASMGKTYAEIATIVGISVRTVKFHMGNVVSKLGVSNARQAIRLGVELDLITPMQ | No
HMTGENWAERSRQLAAAGLLVLGKEAQEKIASLPNLIPLIEAAAASDTRLLNAQTIDELLSFVPTEETI | Yes
HMGGNKILTWKTDAATTRNQVPINERKEGLEISYKNEERNWVAEKYVGTSFSDDKWGVDYNWNQD | Yes
HMSVTYRYSYVYNGNTYSDGWSVRRAIENNENKRFGPEPSDLDHEAQKQARVTFWAEHGVEYKEQEVV | No

---

Listing of recorded soluble fraction (log2) by entry.
Assay: soluble fraction after stress (log2 fold change); higher = more stays soluble; pooled small domains, quantitative proteomics
Conditions: stress: 50 degC
reported.property: soluble fraction (log2)

residue.sequence | observed.value
HMTDFSDLSFKYNSEEKDVLNSINLKINGGEMTSLVGHSGAGKTTILNLIPRFYEKSKGDISIDGQSIY | -0.0832
HMRKNVAGITPNVYGMGLKDAVYLLENAGYRVKVNGRGNVVRQSINSGTRIIKGQLIILDLD | -2.73
HMGFVTVTEVDTTADLKLARVYVSVLGPEEQWAKSFTALESARGFVWNWLRKHLDLRVTPQLAF | -0.984
HMLSSREEKILNYLNEHQIITRKKAQELLETSQSTAGRVLKIMVDNGLIVQYGGSRSIWYELIK | -0.939
HMNEVETWSVQADGATGRIDKWLAEQNEWSRSQVQEWLKAGRVEVDGRVVKPNYKLSGTESIAVHIPEAV | -0.0928
HMSQEAKLAMPVTDLRLSARTLNALELANIRTVRDLVSHTEEQLLELRNFGETALAEVKEKLAALGLRLGM | 0.18
HMKMPNGYGSITKLSGKRRKPWRVRKTAGWELDAKTQKLKQTYINIGYYETRADAMSALVSYNEDP | -0.898
HMDFDVELTSAGTAKVKVIKAVREATGLGLKEAKDLVDNAPSIVKEGLDEAAANDLKAALEETGASVTL | 0.117
HMGMETQLSPKEKSIYTIIQNRPNIQSGEVSEKLAIPLPTVKRILSDLINKGLIEKQGSGRNVSYTI | 0.254
HMKKHALFTLFKHHNANGTTVWYARFWDDATQRYAIARSTGVLAQGKRERHDEAITVAREMASSIQFS | -2.6
HMSKETTYEVLSLKGDEWQTDTIYSDRDEAIEAARNLHGDPHIDGAKVISEVYDDKTGGSKETTIFNT | 0.226
HMGEPLSPDARALTNVLRHYRGWAEPGELARKSGLGSRERVLTAAQSLVNAGLADIERGMVRPTAALMEVQ | 0.0805
HMGASGVEVPDVAGMSTAQAVSSLEQKGFVVNRTESYDAGVEKGNVISQSPEGGTKAPNGSAVTIRISQGA | 0.428
HMFTLNEIIGQKIRNARISAGLTLDELSKMTGISAAQLSSLETGYRRANIDTLYAIAKAIGIDVSNLLKY | -0.46
HMALALDDLFDRYEQLQDQSLGDKTEEGQELRAMIRAYIEQEGLSVRVTRSTTNRELLELIEQEMEG | -0.174
HMQEAATSLNAKILAKLRENNGTLAVSDKSDPALISSLFGVSKGNFKKAIGALYKNGQIVIHADRIEL | -0.436
HMELKYIDYDEALVVYAKTVTASGGGLSGVKDEGGIRKVLDFVQNDLYYPTFVDKLTYLVFGL | 0.103
